Assay: Hepatocyte stability and metabolism (parent remaining, acid and OPD formation)
Type: in vitro ADME
Settings: human hepatocytes; OPD formation by LC-MS/MS after phenylglyoxal derivatisation
outcome.measure: OPD

In [3]: df
Out[3]:
                                   molecule  outcome_measure  result
0  Nc1ccccc1NC(=O)c1ccc2nn(Cc3cccnc3)cc2c1 [Compound A13]              OPD  No OPD
1  Nc1ccccc1NC(=O)c1ccc2c(cnn2CC2CC2)c1 [Compound A11]              OPD  No OPD
2  Nc1ccccc1NC(=O)c1ccc2c(cnn2Cc2cncc(F)c2)c1 [Compound A4]              OPD  No OPD
3  Cc1ccc(Cn2ncc3cc(C(=O)Nc4ccc(F)cc4N)ccc32)c(C)n1 [Compound A8]              OPD  No OPD
4  Nc1cc(F)ccc1NC(=O)c1ccc2c(cnn2Cc2cncc(F)c2)c1 [Compound A7]              OPD  No OPD

API: the following record is the query input.
Consider Cc1ccc(Cn2ncc3cc(C(=O)Nc4ccccc4N)ccc32)c(C)n1 [Compound A5] . Its measured OPD is No OPD
